Target: K18PL tau (Homo sapiens, UniProt P10636, P618L)
Construct: (K18PL; amino acids 244-369); made in house
Sequence (P10636 561-686 P618L): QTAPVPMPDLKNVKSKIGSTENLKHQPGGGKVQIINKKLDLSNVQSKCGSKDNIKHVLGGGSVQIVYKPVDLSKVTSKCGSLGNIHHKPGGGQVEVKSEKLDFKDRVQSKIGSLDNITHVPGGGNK
Test: Heparin-induced K18PL tau fibrillization assay monitored by ThT fluorescence
Format: biochemical
Conditions: Table 5; read-out: K18PL (ThT) IC50 value
pIC50: −log10 of the molar value.

{"columns": ["compound-structure-string", "pIC50"],
 "data": [
  ["Nc1scc2c(C(=O)O)nn(-c3ccc(Cl)cc3)c(=O)c12", 5.80],
  ["CCNC(=O)c1nn(-c2ccc(Cl)cc2)c(=O)c2c(N)scc12", 5.25],
  ["CN(C)C(=O)c1nn(-c2ccc(Cl)cc2)c(=O)c2c(N)scc12", 5.28],
  ["Nc1scc2c(C(=O)NC3CC3)nn(-c3ccc(Cl)cc3)c(=O)c12", 5.34],
  ["CC(C)NC(=O)c1nn(-c2ccc(Cl)cc2)c(=O)c2c(N)scc12", 6.15],
  ["CNC(=O)c1nn(-c2ccc(Cl)cc2)c(=O)c2c(N)scc12", 5.37],
  ["CCOC(=O)c1nn(-c2ccc(Cl)cc2)c(=O)c2c(N)scc12", 5.51],
  ["CC(C)NC(=O)c1nn(-c2ccc(Br)cc2)c(=O)c2c(N)scc12", 5.66]
]}
